Tested on: HOP-92 NSCLC
Assay: NCI tumour cell line growth inhibition, 48 h
Endpoint: TGI (µM)
Hi! Could you send only the number? It should be in µM, unit omitted.

{"columns": ["Compound", "TGI [µM]"],
 "data": [
  ["CN(C)CCOc1nc2ccccc2c2c1-c1ccc(Cl)cc1C2=O", 12.3],
  ["CS(=O)(=O)c1nc(Cl)c(Cl)c(C#N)c1Cl", 3.73],
  ["COc1cc(C2C(C#N)=C(N)Oc3cc4c(cc32)OCO4)cc2c1OCO2 (centres undefined)", 46.8],
  ["Cc1cc(-c2nc3cc(F)ccc3s2)ccc1NC(=O)C(C)N (centres undefined)", 9.41],
  ["CC1(C)O[C@@H](CP(c2ccccc2)c2ccccc2)[C@H](CP(c2ccccc2)c2ccccc2)O1", 27.1],
  ["CC1(C)CC2CC(C)(CN2c2ncnc3ccc(Br)cc23)C1 (centres undefined)", 27.3]
]}

For N#CC(c1ccccc1)N(CCc1ccccc1)C(=O)Oc1ccccc1 (centres undefined) , what is its reported TGI? 95.7

Suppose we examine the compound "Oc1[nH]c2ccccc2c1N=NC(=S)N1CCCC1" ; what TGI value has been reported? 39.3

Need TGI, item COc1ccc(C2C(Cl)C(=O)N2NC(=O)c2ccc(N)cc2)cc1OC (centres undefined) 5.07

# get_value(readout='TGI', item= Cc1cc2c(C(C)C)c(O)c(O)c(C=O)c2c(O)c1-c1c(C)cc2c(C(C)C)c(O)c(O)c(C=O)c2c1O (tested in a mixture with another compound) ) 0.909

Returns the measured TGI for the input compound. Input: "C[n+]1c(-c2ccc(/C=N\NC(=O)c3ccc(C(=O)N/N=C/c4ccc(-c5cn6ccsc6[n+]5C)cc4)cc3)cc2)cn2ccsc21" 36.4

Where do the numbers come from? From PubChem BioAssay (NCI).
